Hey, just so you know, these numbers are from ChEMBL document CHEMBL1275482.

Test system: Streptococcus sp. 'group B'
Test: Antimicrobial activity against group B Streptococcus sp. 'group B' serotype III isolate 8607-03 expressing pbp2x Q557E mutant and multilocus sequence type ST19 by broth dilution method
Format: functional
REPORTED ENDPOINT: MIC (µg/mL)
Provide the reading as a plain figure in µg/mL.

The recorded MIC for CC1(C)S[C@@H]2[C@H](NC(=O)[C@H](N)c3ccccc3)C(=O)N2[C@H]1C(=O)O is 0.06

The recorded MIC for CC1(C)S[C@@H]2[C@H](NC(=O)Cc3ccccc3)C(=O)N2[C@H]1C(=O)O is 0.12

The recorded MIC for CO[C@@]1(NC(=O)Cc2cccs2)C(=O)N2C(C(=O)O)=C(COC(N)=O)CS[C@@H]21 is 16

The recorded MIC for Cc1nnc(SCC2=C(C(=O)O)N3C(=O)[C@@H](NC(=O)Cn4cnnn4)[C@H]3SC2)s1 is 0.5

The recorded MIC for CO/N=C(\C(=O)N[C@@H]1C(=O)N2C(C(=O)O)=C(COC(C)=O)CS[C@H]12)c1csc(N)n1 is 0.25

The recorded MIC for CO/N=C(\C(=O)N[C@@H]1C(=O)N2C(C(=O)O)=C(COC(N)=O)CS[C@H]12)c1ccco1 is 0.12

* * *

Give MIC for every item shown.
System: Streptococcus sp. 'group B'
Experiment: Antimicrobial activity against group B Streptococcus sp. 'group B' serotype IA isolate 5662-05 by broth dilution method
Format: functional
Provide the reading as a plain figure in µg/mL.

The recorded MIC for CO[C@@]1(NC(=O)Cc2cccs2)C(=O)N2C(C(=O)O)=C(COC(N)=O)CS[C@@H]21 [CEFOXITIN] is 8

The recorded MIC for CC1(C)S[C@@H]2[C@H](NC(=O)[C@H](N)c3ccccc3)C(=O)N2[C@H]1C(=O)O [AMPICILLIN] is 0.12

The recorded MIC for Cc1nnc(SCC2=C(C(=O)O)N3C(=O)[C@@H](NC(=O)Cn4cnnn4)[C@H]3SC2)s1 [CEFAZOLIN] is 0.25

The recorded MIC for CO/N=C(\C(=O)N[C@@H]1C(=O)N2C(C(=O)O)=C(COC(N)=O)CS[C@H]12)c1ccco1 [CEFUROXIME] is 0.03

The recorded MIC for CO/N=C(\C(=O)N[C@@H]1C(=O)N2C(C(=O)O)=C(COC(C)=O)CS[C@H]12)c1csc(N)n1 [CEFOTAXIME] is 0.06

The recorded MIC for CC1(C)S[C@@H]2[C@H](NC(=O)Cc3ccccc3)C(=O)N2[C@H]1C(=O)O [PENICILLIN G] is 0.06

* * *

Give MIC for every item shown.
System: Streptococcus sp. 'group B'
Test: Antimicrobial activity against group B Streptococcus sp. 'group B' serotype V isolate 4857-03 by broth dilution method
Format: functional
Provide the reading as a plain figure in µg/mL.

The recorded MIC for CO[C@@]1(NC(=O)Cc2cccs2)C(=O)N2C(C(=O)O)=C(COC(N)=O)CS[C@@H]21 is 4

The recorded MIC for CO/N=C(\C(=O)N[C@@H]1C(=O)N2C(C(=O)O)=C(COC(N)=O)CS[C@H]12)c1ccco1 is 0.06

The recorded MIC for CC1(C)S[C@@H]2[C@H](NC(=O)[C@H](N)c3ccccc3)C(=O)N2[C@H]1C(=O)O is 0.25

The recorded MIC for CC1(C)S[C@@H]2[C@H](NC(=O)Cc3ccccc3)C(=O)N2[C@H]1C(=O)O is 0.12

The recorded MIC for CO/N=C(\C(=O)N[C@@H]1C(=O)N2C(C(=O)O)=C(COC(C)=O)CS[C@H]12)c1csc(N)n1 is 0.06

The recorded MIC for Cc1nnc(SCC2=C(C(=O)O)N3C(=O)[C@@H](NC(=O)Cn4cnnn4)[C@H]3SC2)s1 is 0.5

* * *

Give MIC for every item shown.
System: Streptococcus sp. 'group B'
Assay: Antimicrobial activity against group B Streptococcus sp. 'group B' serotype IA isolate 3047-05 by broth dilution method
Assay type: functional
Provide the reading as a plain figure in µg/mL.

The recorded MIC for CO/N=C(\C(=O)N[C@@H]1C(=O)N2C(C(=O)O)=C(COC(N)=O)CS[C@H]12)c1ccco1 is 0.06

The recorded MIC for CO[C@@]1(NC(=O)Cc2cccs2)C(=O)N2C(C(=O)O)=C(COC(N)=O)CS[C@@H]21 is 8

The recorded MIC for CC1(C)S[C@@H]2[C@H](NC(=O)Cc3ccccc3)C(=O)N2[C@H]1C(=O)O is 0.06

The recorded MIC for CC1(C)S[C@@H]2[C@H](NC(=O)[C@H](N)c3ccccc3)C(=O)N2[C@H]1C(=O)O is 0.12

The recorded MIC for Cc1nnc(SCC2=C(C(=O)O)N3C(=O)[C@@H](NC(=O)Cn4cnnn4)[C@H]3SC2)s1 is 0.25

The recorded MIC for CO/N=C(\C(=O)N[C@@H]1C(=O)N2C(C(=O)O)=C(COC(C)=O)CS[C@H]12)c1csc(N)n1 is 0.06

* * *

Tested on: Streptococcus sp. 'group B'
Assay: Antimicrobial activity against group B Streptococcus sp. 'group B' serotype IV isolate 3454-03 by broth dilution method
Format: functional
REPORTED ENDPOINT: MIC (µg/mL)
Provide the reading as a plain figure in µg/mL.

The recorded MIC for CC1(C)S[C@@H]2[C@H](NC(=O)[C@H](N)c3ccccc3)C(=O)N2[C@H]1C(=O)O [AMPICILLIN] is 0.25

The recorded MIC for CO[C@@]1(NC(=O)Cc2cccs2)C(=O)N2C(C(=O)O)=C(COC(N)=O)CS[C@@H]21 [CEFOXITIN] is 8

The recorded MIC for CC1(C)S[C@@H]2[C@H](NC(=O)Cc3ccccc3)C(=O)N2[C@H]1C(=O)O [PENICILLIN G] is 0.12

The recorded MIC for Cc1nnc(SCC2=C(C(=O)O)N3C(=O)[C@@H](NC(=O)Cn4cnnn4)[C@H]3SC2)s1 [CEFAZOLIN] is 0.5

The recorded MIC for CO/N=C(\C(=O)N[C@@H]1C(=O)N2C(C(=O)O)=C(COC(C)=O)CS[C@H]12)c1csc(N)n1 [CEFOTAXIME] is 0.25

The recorded MIC for CO/N=C(\C(=O)N[C@@H]1C(=O)N2C(C(=O)O)=C(COC(N)=O)CS[C@H]12)c1ccco1 [CEFUROXIME] is 0.06

* * *

Tested on: Streptococcus sp. 'group B'
Assay: Antimicrobial activity against group B Streptococcus sp. 'group B' serotype II isolate 3776-04 by broth dilution method
Assay type: functional
REPORTED ENDPOINT: MIC
A complete answer gives the number and then names the unit.

Value sought: MIC, system Streptococcus sp. 'group B', item CO/N=C(\C(=O)N[C@@H]1C(=O)N2C(C(=O)O)=C(COC(N)=O)CS[C@H]12)c1ccco1 . Result: 0.12 µg/mL

Value sought: MIC, system Streptococcus sp. 'group B', item Cc1nnc(SCC2=C(C(=O)O)N3C(=O)[C@@H](NC(=O)Cn4cnnn4)[C@H]3SC2)s1 . Result: 0.25 µg/mL

Value sought: MIC, system Streptococcus sp. 'group B', item CC1(C)S[C@@H]2[C@H](NC(=O)[C@H](N)c3ccccc3)C(=O)N2[C@H]1C(=O)O . Result: 0.25 µg/mL

Value sought: MIC, system Streptococcus sp. 'group B', item CO/N=C(\C(=O)N[C@@H]1C(=O)N2C(C(=O)O)=C(COC(C)=O)CS[C@H]12)c1csc(N)n1 . Result: 0.12 µg/mL

Value sought: MIC, system Streptococcus sp. 'group B', item CC1(C)S[C@@H]2[C@H](NC(=O)Cc3ccccc3)C(=O)N2[C@H]1C(=O)O . Result: 0.12 µg/mL

Value sought: MIC, system Streptococcus sp. 'group B', item CO[C@@]1(NC(=O)Cc2cccs2)C(=O)N2C(C(=O)O)=C(COC(N)=O)CS[C@@H]21 . Result: 8 µg/mL

* * *

System: Streptococcus sp. 'group B'
Assay: Antimicrobial activity against group B Streptococcus sp. 'group B' serotype III isolate 6138-03 expressing pbp2x Q557E mutant and multilocus sequence type ST19 by broth dilution method
Format: functional
Labelling: MIC reported below 0.5 µg/mL becomes MET; at or above becomes NOT MET.

Q. MIC under 0.5 µg/mL? Item: CC1(C)S[C@@H]2[C@H](NC(=O)Cc3ccccc3)C(=O)N2[C@H]1C(=O)O
A. MET

Q. MIC under 0.5 µg/mL? Item: CC1(C)S[C@@H]2[C@H](NC(=O)[C@H](N)c3ccccc3)C(=O)N2[C@H]1C(=O)O
A. MET

Q. MIC under 0.5 µg/mL? Item: CO[C@@]1(NC(=O)Cc2cccs2)C(=O)N2C(C(=O)O)=C(COC(N)=O)CS[C@@H]21
A. NOT MET

Q. MIC under 0.5 µg/mL? Item: CO/N=C(\C(=O)N[C@@H]1C(=O)N2C(C(=O)O)=C(COC(N)=O)CS[C@H]12)c1ccco1
A. MET

Q. MIC under 0.5 µg/mL? Item: CO/N=C(\C(=O)N[C@@H]1C(=O)N2C(C(=O)O)=C(COC(C)=O)CS[C@H]12)c1csc(N)n1
A. MET
